experiment: Cytotoxicity against mouse NIH3T3 cells assessed as cell growth inhibition at 50 ng/ml; format: toxicity, cell-based
MEASUREMENT KIND: inhibition at 50 ng/ml (%)
The reply should be a number in %, with the unit left off.

## Input Looking for the measured inhibition at 50 ng/ml of COC1=C(C)C(=O)C2=C(C1=O)[C@@H]1[C@@H]3CC4=C(C(=O)C(OC)=C(C)C4=O)[C@H](COC(C)=O)N3[C@@H](O)[C@H](C2)N1C , can you help?
## Output 100

---

assay: Antiproliferative activity against human HELF cells assessed as cell growth inhibition; assay type: toxicity, cell-based
MEASUREMENT KIND: IC50
In your response, put the unit directly after the numeric value.

## Input Looking for the measured IC50 of COC1=C(C)C(=O)C2=C(C1=O)[C@@H]1[C@@H]3CC4=C(C(=O)C(OC)=C(C)C4=O)[C@H](COC(=O)C(=O)CNC(=O)c4ccccc4)N3[C@@H](C#N)[C@H](C2)N1C , can you help?
## Output 2.12 nM
